Values were extracted from PubChem BioAssay.

# Test Method Notes: small-molecule binders of probe aLefty1, primary screen, biochemical, small-molecule microarray, 635/667 nm fluorescence (AID 1153);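 also: score merges spot fluorescence with signal-to-noise ratio from the scanned slide images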
# Experimental Context: higher = more signal
Parameter: composite z-score
// print number alone

[ask] Value lookup for composite z-score; key = CC(c1ccccc1)C(O)C1C=CC2C(=O)N(c3ccccc3)C(=O)C2N1Nc1ccc(C#N)cc1 (centres undefined)
[reply] 0.379

[ask] Now consider [N-]=[N+]=NCc1ccccc1C[C@]1(C(=O)NCc2ccccc2)N=C(c2ccc(OCCCO)cc2)O[C@H]1c1ccccc1CN=[N+]=[N-] .
[reply] 1.09

[ask] Next compound: COC(=O)[C@@]1(Cc2ccc(F)cc2)[C@H]2c3cc(C(=O)N4CCCC4)n(CCO)c3C[C@H]2CN1C(=O)c1ccccc1
[reply] -0.193

[ask] Please give the result for CC#CCO[Si](C#CCCCCCC)(C(C)C)C(C)C too.
[reply] -0.0501

----------
So I've got a bunch of molecules here, and I need their composite z-score values.
# Test Method Notes: small-molecule microarray binders of probe aWnt5a, primary screen, biochemical, biotinylated probe, 635/667 nm fluorescence (AID 1113);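 also: score merges 667 nm fluorescence intensity with signal-to-noise per printed feature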
# Experimental Context: higher = more signal
Give a plain numeric answer without units written out.

[ask] Any idea what composite z-score was measured for COCCOC(=O)N1C(=O)[C@@]2(c3cc(C#CCC(C(=O)OC)C(=O)OC)ccc31)[C@H](C(=O)N1CCCCCCC1)[C@H]1C(=O)O[C@H](c3ccccc3)[C@H](c3ccccc3)N1[C@@H]2c1ccccc1OCCO ?
[reply] 0.931

[ask] How about this molecule: CCOC(=O)C[C@H]1[C@H](OC(=O)Cc2ccc3c(c2)OCO3)[C@@H](NC(=O)c2ccccc2)c2cc(OCCCO)ccc2N1C(=O)Cc1ccc(OC)cc1
[reply] -0.0545

[ask] Now consider CCOC(=O)C[C@H]1[C@H](OC(=O)c2ccc(-c3ccccc3)cc2)[C@@H](NC(=O)CC(C)C)c2cc(OCCCO)ccc2N1C(=O)Cc1ccc(OC)cc1 .
[reply] -0.0523

[ask] Now this one: O=C1O[C@H](c2ccccc2)[C@H](c2ccccc2)N2[C@H]1[C@@H](C(=O)NC[C@H](O)c1ccccc1)[C@]1(C(=O)Nc3ccc(C#CCCO)cc31)[C@H]2c1ccccc1OCCO
[reply] -0.147

[ask] Same question, COc1ccc([Si](C)(C)[C@H]2[C@H](CCn3cc([C@H](O)c4ccccc4)nn3)O[C@@]3(C(=O)N(c4ccccc4)c4ccccc43)[C@@H]2C)cc1 this time
[reply] -0.1

[ask] And for C=CCC(OC(C)=O)[C@@H]1[C@@H](N(Cc2cc3ccccc3o2)C(=O)c2ccc(-c3ccccc3)cc2)c2cc(OCCCO)ccc2N1C(=O)c1ccc2ccccc2n1 (some centres undefined) ?
[reply] 0.107

[ask] What about CO[C@H]1O[C@H](CO)[C@@H](OC(=O)Nc2ccc3c(c2)OCO3)[C@@H]2OC(=O)[C@@H](Cc3ccccc3)C/C=C/C[C@H](Cc3ccccc3)C(=O)O[C@@H]12 ?
[reply] 0.0533

[ask] Moving on to O=C(NCCO)C1=C[C@H](Oc2ccccc2I)[C@@H](O)[C@H](NCc2ccc(F)cc2)C1
[reply] -0.237

[ask] Follow-up item: C=CCNC(=O)[C@H]1[C@@H]2C(=O)O[C@@H](c3ccccc3)[C@@H](c3ccccc3)N2[C@@H](c2ccc(O)cc2)[C@]12C(=O)Nc1ccc(C#CC3=CCCCC3)cc12
[reply] 0.163

[ask] Lookup CC(C)C[C@@H]1NC(=O)[C@@H]2C[C@H](C(=O)O)[C@H](c3ccc(O)cc3)N2C1=O
[reply] -0.0512

[ask] Moving on to COc1ccccc1CN1C(=O)c2ccccc2[C@@H](C(=O)NCCCN(C)C)[C@@H]1c1ccc(CO)cc1
[reply] -0.0529

[ask] Okay, and COCCCNC(=O)[C@@]1(Sc2ccc(C)cc2)CC(=O)N(C2CCCCC2)[C@@H]1c1ccc(CO)cc1I ?
[reply] -0.0853

[ask] Try this molecule next: CCCCC(=C=CC[C@@H](O)c1cccc(OCCO)c1)C[C@@H](O)COCc1ccccc1
[reply] -0.096

[ask] Further, for CN1C(=O)[C@]2(CCC(=O)OC(C)(C)C)N=C(c3ccc(OCCCO)cc3)O[C@@H]2c2ccccc21 ?
[reply] 0.0279

[ask] Try C=CCC(OC(C)=O)[C@@H]1[C@@H](N(Cc2cccc3ccccc23)C(=O)c2ccc(C)cc2)c2cc(OCCCO)ccc2N1C(=O)c1ccc2ccccc2n1 (some centres undefined) next.
[reply] -0.147

[ask] Another molecule to look at: CCCC=C(CCC)[C@@H](NC(=O)c1ccccc1)c1ccc(C(=O)OC)cc1
[reply] 0.732

[ask] Now consider COC(=O)C(CC#Cc1ccc2c(c1)[C@]1(C(=O)N2)[C@H](c2ccc(O)cc2)N2[C@H](c3ccccc3)[C@H](c3ccccc3)OC(=O)[C@H]2[C@@H]1C(=O)N1CCc2cc(OC)c(OC)cc2C1)C(=O)OC and answer again.
[reply] 0.324

[ask] And for CCCC[C@@H]1C[C@H]1[C@@H](NC(=O)Cc1ccccc1)c1ccc(Cl)cc1 ?
[reply] 0.225

[ask] // query: CC(=O)c1ccc(C(O)C2C=CC3C(=O)N(C)C(=O)C3N2NC(=O)OC(C)(C)C)cc1 (centres undefined)
[reply] 0.0279

[ask] Moving on to the next molecule: C[N+](C)(C)CCCCCCNC(=O)[C@@H]1C[C@@H]2C(=O)N[C@@H](Cc3ccccc3)C(=O)N2[C@@H]1c1ccc(O)cc1
[reply] -0.0236

[ask] Next molecule: C=CC[C@@]1(C(=O)N(C)C)N=C(c2ccc(OCCCO)cc2)O[C@@H]1c1ccccc1
[reply] 0.233

[ask] Could you do the same for Cc1c(-c2ccc(-c3ccc(Cl)c(Cl)c3)o2)nc(-c2ccccc2)c2c1CO[Si]2(C(C)C)C(C)C , please?
[reply] -0.113

[ask] Lookup CCCCN1CC=CC23O[C@@H]4C=CCOC(=O)[C@@H]4[C@H]2C(=O)N(CCO)[C@@H]3C1=O (some centres undefined)
[reply] -0.119

[ask] And then O=C1NC(=O)C2C1C=CC(C(O)c1cccc(O)c1)N2Nc1ccc(Cl)cc1Cl (centres undefined) , what is it?
[reply] -0.104

[ask] Same again, this time with NC(=O)[C@@]1(CCS(=O)(=O)c2ccccc2)COC(c2ccc(OCCCO)cc2)=N1
[reply] -0.0495

[ask] What do we get for O=C1NC(=O)C2C1C=CC(C(O)c1ccc(F)cc1)N2Nc1ccccn1 (centres undefined) ?
[reply] -0.124

[ask] Another molecule: CCCCC(O)C1C=CC2C(=O)NC(=O)C2N1Nc1ccccn1 (centres undefined)
[reply] -0.1

[ask] Lookup CN(C)CCCC[C@@H]1NC(=O)[C@H]2C[C@@H](C(=O)O)[C@@H](c3cccc(OCCO)c3)N2C1=O
[reply] 0.0495

[ask] // query: C=CC(CO)NC(=O)OCC1c2ccccc2-c2ccccc21 (centres undefined)
[reply] 0.048
